Molecular target: T1, human BR3 extracellular domain (human, UniProt Q96RJ3 1-61)
T1 construct: biotinylated where used as tracer; also called hBR3-ECD; BR3-ECD
Assay: SPR, BR3 ECD on chip;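 further: Anti-BR3 antibodies passed over the chip at high flow in PBS with 0.05% polysorbate 20, on and off rates fitted together globally to a 1:1 binding model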
pKd: −log10 of the molar value.
So basically: pKd at 10 or higher? That is Satisfied. Lower than 10? That is Not satisfied.

Hu2.1-46 IgG (antibody, V domains shown, humanized IgG; also called h2.1-46) VH: EVQLVESGGGLVQPGGSLRLSCAASGDSITRGYWNWVRQAPGKGLEWVGYINYSGTTYYNPSLKSRFTISRDTSKNTFYLQMNSLRAEDTAVYYCANSNFYGAMDYWGQGTLVTVSS VL: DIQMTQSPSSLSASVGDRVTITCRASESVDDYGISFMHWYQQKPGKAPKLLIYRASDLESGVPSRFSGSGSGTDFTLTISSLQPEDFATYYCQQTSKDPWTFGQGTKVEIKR	Satisfied
Hu11G9-36 IgG (antibody, V domains shown, humanized IgG) VH: EVQLVESGGGLVQPGGSLRLSCAASGDSINFGYWNWVRQAPGKGLEWVGYISYSGSTYYNPSLKSRFTISRDTSKNTFYLQMNSLRAEDTAVYYCAALNDLFLYFDVWGQGTLVTVSS VL: DIQMTQSPSSLSASVGDRVTITCRSSQSLVHSNGNTYLHWYQQKPGKAPKLLIYKVSNRFSGVPSRFSGSGSGTDFTLTISSLQPEDFATYYCSQSTHVPPFTFGQGTKVEIKR	Satisfied

Exam item: Item Hu11G9-46 IgG (antibody, V domains shown, humanized IgG) VH: EVQLVESGGGLVQPGGSLRLSCAASGDSITSGYWNWVRQAPGKGLEWVGYISYSGSTYYNPSLKSRFTISRDTSKNTFYLQMNSLRAEDTAVYYCAGLNDLYLYFDVWGQGTLVTVSS VL: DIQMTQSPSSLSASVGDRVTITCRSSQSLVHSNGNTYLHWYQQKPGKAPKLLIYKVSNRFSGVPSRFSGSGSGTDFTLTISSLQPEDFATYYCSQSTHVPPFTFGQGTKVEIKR with pKd of 10 or above?
Marked response: Satisfied

Exam item: Is pKd at least 10? Consider Hu2.1-94 Fab (Fab, V domains shown, Fab) VH: EVQLVESGGGLVQPGGSLRLSCAASGDSITRGYWNWVRQAPGKGLEWVGYINYSGTTYYNPSLKSRFTISRDTSKNTLYLQMNSLRAEDTAVYYCATSHNTGEMDYWGQGTLVTVSS VL: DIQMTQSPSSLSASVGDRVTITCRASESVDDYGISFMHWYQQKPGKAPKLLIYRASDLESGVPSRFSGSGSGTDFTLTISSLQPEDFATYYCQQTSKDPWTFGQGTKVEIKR
Marked response: Not satisfied

Exam item: State whether the measured pKd reaches 10, counting equality as reaching it, for Hu2.1-30 IgG (antibody, V domains shown, humanized IgG; also called h2.1-30) VH: EVQLVESGGGLVQPGGSLRLSCAASGDSITRGYWNWVRQAPGKGLEWVGYINYSGTTYYNPSLKSRFTISRDTSKNTFYLQMNSLRAEDTAVYYCANLNYYGAMDYWGQGTLVTVSS VL: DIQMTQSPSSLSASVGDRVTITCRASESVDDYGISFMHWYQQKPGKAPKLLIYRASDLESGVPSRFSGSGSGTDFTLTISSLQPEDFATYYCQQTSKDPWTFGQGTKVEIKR
Marked response: Satisfied

Exam item: # bool: pKd of chimeric 11G9 IgG (antibody, V domains shown, also called Ch 11G9 IgG) VH: DVQLQESGPSLVKPSQTLSLTCSVTGDSITSGYWNWIRKFPGNKLEYMGYISYSGSTYYNPSLKSRISITRDTSKNQFYLQLLSVTTEDTATYYCAGLDGLYWYFDVWGAGTLVTVSS VL: DIVMTQTPLSLPVSLGDQASISCRSSQSLVHSNGNTYLHWYLQKPGQSPKLLIYKVSNRFSGVPDRFSGSGSGTDFTLKISRVEAEDLGVYFCSQSTHVPPFTFGSGT >= 10
Marked response: Not satisfied

Exam item: Hello, I need to know if Hu9.1-88 IgG (antibody, V domains shown, humanized IgG; also called h9.1-88) VH: EVQLVESGGGLVQPGGSLRLSCAASGFPVTGSYVSWVRQAPGKGLEWVGFIRDKANGYTTEYNPSVKGRFTISRDTSKNTLYLQMNSLRAEDTAVYYCAQVRRALDYWGQGTLVTVSS VL: DIQMTQSPSSLSASVGDRVTITCKSSQSLLYSSNQNNYLAWYQQKPGKAPKLLIYWASTRESGVPSRFSGSGSGTDFTLTISSLQPEDFATYYCQQYYTYPYTFGQGTKVEIKR has measured pKd not below 10. Thanks!
Marked response: Satisfied
